# target_desc: Human PD-L1/PD-1 (Homo sapiens, UniProt Q9NZQ7)
# Construct: made in house; host or cells: HEK293T
# Sequence (Q9NZQ7 with tags, fused parts or gaps): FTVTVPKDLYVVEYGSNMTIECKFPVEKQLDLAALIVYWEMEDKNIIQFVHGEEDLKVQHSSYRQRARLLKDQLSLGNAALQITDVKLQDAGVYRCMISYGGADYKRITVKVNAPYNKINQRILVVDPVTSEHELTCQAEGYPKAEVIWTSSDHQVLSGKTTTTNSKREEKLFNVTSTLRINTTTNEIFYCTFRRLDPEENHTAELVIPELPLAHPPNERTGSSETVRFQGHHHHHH
# test_details: HTRF PD-1-Ig/PD-L1-His binding assay (human PD-L1)
# run_parameters: cluster symbol; read-out: HTRF IC50 cluster
pIC50: −log10 of the molar value. Positions of bridges follow the written chain, without caps; N, C: chain ends. Non-standard residues stand in square brackets, D forms with d. Residues, ends and D or L forms follow the SMILES beside them. ξ: configuration not given here. Phe(3-F) = N[C@@H](Cc1cccc(F)c1)C(=O)O; Bta = N[C@@H](Cc1csc2ccccc12)C(=O)O; dNMeNle = CCCC[C@@H](NC)C(=O)O; NMeNle = CCCC[C@H](NC)C(=O)O; NMeA = CN[C@@H](C)C(=O)O; Orn = NCCC[C@H](N)C(=O)O; Dab = NCC[C@H](N)C(=O)O; Dap = NC[C@H](N)C(=O)O; ξP = O=C(O)C1CCCN1; Sar = CNCC(=O)O
Each entry below lists one item and its recorded pIC50 value.

| compound | pIC50 |
| --- | --- |
| CCCC[C@@H]1C(=O)N(C)[C@H](CCCC)C(=O)N[C@@H](CCCN)C(=O)N[C@@H](C(=O)NCC(N)=O)CSCC(=O)N[C@@H](Cc2ccc(O)cc2)C(=O)N2CCCC2C(=O)N[C@H](CC(=O)O)C(=O)N2CCC[C@H]2C(=O)N[C@H](Cc2c[nH]cn2)C(=O)N[C@@H](CCC(=O)O)C(=O)N2CCCC2C(=O)N[C@H](Cc2c[nH]c3ccccc23)C(=O)N[C@@H](CCN)C(=O)N[C@@H](Cc2c[nH]c3ccccc23)C(=O)N1C (stereo partly shown) [Example 1216] ({CH2CO}-Y[ξP][dD]P[dH]E[ξP][dW][Dab]W[dNMeNle][dNMeNle][Orn][dC]G-NH2; thioether N-14) | 7.52 to 8.17 |
| CCCC[C@H]1C(=O)N(C)[C@@H](CCCC)C(=O)N[C@@H](CCCNC(=N)N)C(=O)N[C@H](C(=O)NCC(N)=O)CSCC(=O)N[C@@H](Cc2ccc(O)cc2)C(=O)N(C)[C@@H](C)C(=O)N[C@@H](CC(N)=O)C(=O)N2CCC[C@H]2C(=O)N[C@@H](CN)C(=O)N[C@@H](CC(C)C)C(=O)N2CCC[C@H]2C(=O)N[C@@H](Cc2c[nH]c3ccccc23)C(=O)N[C@@H](CO)C(=O)N[C@@H](Cc2csc3ccccc23)C(=O)N1C [Example 1084] ({CH2CO}-Y[NMeA]NP[Dap]LPWS[Bta][NMeNle][NMeNle]RCG-NH2; thioether N-14) | 8.17 to 9.41 |
| CCCC[C@H]1C(=O)N(C)[C@@H](CCCC)C(=O)N[C@@H](CCCNC(=N)N)C(=O)N[C@H](C(=O)NCC(N)=O)CSCC(=O)N[C@@H](Cc2cccc(F)c2)C(=O)N(C)[C@@H](C)C(=O)N[C@@H](CC(N)=O)C(=O)N2CCC[C@H]2C(=O)N[C@@H](Cc2cnc[nH]2)C(=O)N[C@@H](CC(C)C)C(=O)N2CCC[C@H]2C(=O)N[C@@H](Cc2c[nH]c3ccccc23)C(=O)N[C@@H](CO)C(=O)N[C@@H](Cc2c[nH]c3ccccc23)C(=O)N1C [Example 7016] ({CH2CO}-[Phe(3-F)][NMeA]NPHLPWSW[NMeNle][NMeNle]RCG-NH2; thioether N-14) | 7.52 to 8.17 |
| CCCC[C@H]1C(=O)N(C)[C@@H](CCCC)C(=O)N[C@@H](CCCNC(=N)N)C(=O)N[C@H](C(=O)NCC(N)=O)CSCC(=O)N[C@@H](Cc2ccccc2)C(=O)N(C)[C@@H](C)C(=O)N[C@@H](CC(N)=O)C(=O)N2CCC[C@H]2C(=O)N[C@@H](Cc2c[nH]cn2)C(=O)N[C@@H](CC(C)C)C(=O)N(C)CC(=O)N[C@@H](Cc2c[nH]c3ccccc23)C(=O)N[C@@H](CO)C(=O)N[C@@H](Cc2c[nH]cn2)C(=O)N1C [Example 1004] ({CH2CO}-F[NMeA]NPHL[Sar]WSH[NMeNle][NMeNle]RCG-NH2; thioether N-14) | < 7.52 |
